Values from patent US8445674B2

Target: human chemokine receptor 2 isoform B (Homo sapiens)
Test: Calcium mobilization assay (FLIPR, antagonist activity against MCP-1)
Conditions: Ca mobilisation assay, CHOK1-CCR2B-A5 cells, inhibition of calcium increase induced by 20 nM MCP-1
Procedure: Calcium Mobilization Assay […] Test compounds were added to the assay plate and agonist activity was monitored as fluorescence for 80 seconds with a FLIPR (488 nm excitation; 510-570 nm emission; Molecular Devices). After 20-30 min. of incubation at 30° C., 20 nM MCP-1 (R&D; Roche) was added and fluorescence was monitored again for 80 seconds. Increases in intracellular calcium are reported as maximum fluorescence after agonist exposure minus basal fluorescence before exposure. […]
Threshold 800 nM: IC50 strictly smaller gives yes (1), otherwise no (0).

COMPOUND	CATEGORY LABEL
CC1(O)CCCN(C(=O)CCN2CCN(C(=O)/C=C/c3ccc(Cl)c(Cl)c3)CCC2=O)C1 (racemic)	no (0)
C[C@H]1C(=O)N(C[C@@H](O)CC(=O)N2CCC3(CC3)[C@H](O)C2)CCN1c1ccc(C(F)(F)F)c(Cl)c1	yes (1)
CC(C)(C)C1(O)CCN(C(=O)CCN2CCN(C(=O)/C=C/c3ccc(Cl)c(Cl)c3)CCC2=O)CC1	yes (1)

Query block: Take the compound NC(=O)C1CCN(C(=O)CCN2CCN(C(=O)/C=C/c3ccc(Cl)c(Cl)c3)CCC2=O)CC1 and say whether its IC50 is less than 800 nM.
Result block: no (0)

Query block: Same read-out for O=C(/C=C/c1ccc(Cl)c(Cl)c1)N1CCC(=O)N(CCC(=O)N2CCC(N3CCNC3=O)CC2)CC1 ?
Result block: no (0)

Query block: Now the same for C[C@H]1CCN(C(=O)CCN2CCN(C(=O)Nc3ccc(Cl)c(Cl)c3)[C@@H](C)C2=O)C[C@H]1O
Result block: no (0)

Query block: Would you kindly repeat that for O=C1CCN(C(=O)Nc2ccc(Cl)c(Cl)c2)CCN1CCCC(=O)N1CCC2(CC2)[C@H](O)C1 ?
Result block: yes (1)

Query block: C[C@H]1C(=O)N(C[C@H](O)CC(=O)N2CCC3(CC3)[C@H](O)C2)CCN1C(=O)Nc1ccc(OC(F)(F)F)c(Cl)c1 , same question.
Result block: yes (1)

Query block: Thanks! And C[C@H]1C(=O)N(CCC(=O)N2CCCC(O)C2)CCN1C(=O)Nc1ccc(Cl)c(Cl)c1 (stereo partly shown) ?
Result block: no (0)

Query block: Let us now turn to C[C@H]1C(=O)N(CCC(=O)N2CC[C@H](F)[C@@H](O)C2)CCN1C(=O)Nc1ccc(Cl)c(Cl)c1 (mixture of isomers)
Result block: no (0)

Query block: What would you report for CC1(CO)CCN(C(=O)CCN2CCN(C(=O)/C=C/c3ccc(Cl)c(Cl)c3)CCC2=O)CC1 ?
Result block: yes (1)

Query block: Now the compound O=C(/C=C/c1ccc(Cl)c(Cl)c1)N1CCC(=O)N(CCC(=O)N2CCC3(CCCC3)CC2)CC1
Result block: yes (1)

----------
molecular target: human chemokine receptor 2 isoform B (Homo sapiens, UniProt P41597); test: Calcium mobilization assay (FLIPR, antagonist activity against MCP-1); settings: Ca mobilisation assay, CHOK1-CCR2B-A5 cells, inhibition of calcium increase induced by 20 nM MCP-1
READOUT TYPE: IC50 (nM)
Express the result in nM but write the number alone.

COMPOUND	UNITS	IC50
C[C@H]1C(=O)N([C@@H](CO)CCC(=O)N2CCC3(CC3)[C@H](O)C2)CCN1C(=O)Nc1ccc(C(F)(F)F)c(Cl)c1	nM	157
O=C1CCN(C(=O)Nc2ccc(Cl)c(C(F)(F)F)c2)CCN1CCCC(=O)N1CCC2(CC2)[C@H](O)C1	nM	51.7
O=C(/C=C/c1ccc(Cl)c(Cl)c1)N1CCC(=O)N(CCC(=O)N2CCC3(CCCO3)CC2)CC1	nM	326

Now for a further compound.
Query block: Which measured IC50 belongs to O=C(/C=C/c1ccc(Cl)c(Cl)c1)N1CCC(=O)N(CCC(=O)N2CCCC(O)C2)CC1 (racemic) , tested on human chemokine receptor 2 isoform B (Homo sapiens, UniProt P41597)?
Result block: 1300

----------
Molecular target: human chemokine receptor 2 isoform B (Homo sapiens, UniProt P41597)
Sequence (P41597 1-360 isoform P41597-2): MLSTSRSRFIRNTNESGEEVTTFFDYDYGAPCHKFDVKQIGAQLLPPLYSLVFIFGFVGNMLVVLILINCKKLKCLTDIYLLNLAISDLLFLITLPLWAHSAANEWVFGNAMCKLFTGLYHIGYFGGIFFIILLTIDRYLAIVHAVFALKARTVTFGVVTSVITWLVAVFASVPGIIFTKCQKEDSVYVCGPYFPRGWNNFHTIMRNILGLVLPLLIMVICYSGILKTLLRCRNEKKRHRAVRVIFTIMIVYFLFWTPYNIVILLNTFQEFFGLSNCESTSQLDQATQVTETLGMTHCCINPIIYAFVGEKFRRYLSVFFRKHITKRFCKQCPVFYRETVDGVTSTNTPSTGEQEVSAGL
Test: Calcium mobilization assay (FLIPR, antagonist activity against MCP-1)
Conditions: Ca mobilisation assay, CHOK1-CCR2B-A5 cells, inhibition of calcium increase induced by 20 nM MCP-1
Description: Calcium Mobilization Assay […] Test compounds were added to the assay plate and agonist activity was monitored as fluorescence for 80 seconds with a FLIPR (488 nm excitation; 510-570 nm emission; Molecular Devices). After 20-30 min. of incubation at 30° C., 20 nM MCP-1 (R&D; Roche) was added and fluorescence was monitored again for 80 seconds. Increases in intracellular calcium are reported as maximum fluorescence after agonist exposure minus basal fluorescence before exposure. […]
pIC50: −log10 of the molar value.
Parameter class (string): assigned from measured pIC50. Ranges: bin A = under 6, bin B = from 6 up to 8, bin C = 8 and over

Past entries and their recorded results:
COMPOUND	CATEGORY LABEL
C[C@H]1C(=O)N(CCCC(=O)N2CCC3(CC3)[C@H](O)C2)CCN1C(=O)Nc1cccc(Cl)c1	bin B
O=C(/C=C/c1ccc(Cl)c(Cl)c1)N1CCC(=O)N(CC(=O)N2CCC3(CCCO3)CC2)CC1	bin A
COC(=O)NC1CCN(C(=O)CCN2CCN(C(=O)/C=C/c3ccc(Cl)c(Cl)c3)CCC2=O)CC1	bin A
O=C(/C=C/c1ccc(Cl)c(Cl)c1)N1CCC(=O)N(CCC(=O)N2CCC(O)(c3ccccc3)CC2)CC1	bin B
C[C@H]1C(=O)N(CCCC(=O)N2CCC3(CC3)[C@H](O)C2)[C@H](C(N)=O)CN1C(=O)Nc1ccc(C(F)(F)F)c(C(F)(F)F)c1	bin C

Query block: // return the class label for C[C@@H]1CN(CCC(=O)N2CCC3(CC3)[C@H](O)C2)C(=O)CCN1C(=O)/C=C/c1cccc(Cl)c1
Result block: bin B

Query block: Next record, please: O=C(/C=C/c1ccc(Cl)c(Cl)c1)N1CCC(=O)N(C(CCO)C(=O)N2CCCC2)CC1 (racemic)
Result block: bin B

Query block: Try C[C@H]1C(=O)N(CCCC(=O)N2CCC3(CC3)[C@H](O)C2)CCN1C(=O)Nc1ccc(OC(F)(F)F)c(Cl)c1 next.
Result block: bin C

Query block: Proceed to C[C@H]1C(=O)N(C[C@@H](O)CC(=O)N2CCC3(CC3)[C@H](O)C2)CCN1C(=O)Nc1ccc(C(F)(F)F)c(C(F)(F)F)c1
Result block: bin C

Query block: What about this compound? C[C@H]1C(=O)N(CCCC(=O)N2CCC3(CC3)[C@H](O)C2)CCN1c1ccc(C(F)(F)F)c(Cl)c1
Result block: bin C

----------
Target: human chemokine receptor 2 isoform B (Homo sapiens, UniProt P41597)
Sequence (P41597 1-360 isoform P41597-2): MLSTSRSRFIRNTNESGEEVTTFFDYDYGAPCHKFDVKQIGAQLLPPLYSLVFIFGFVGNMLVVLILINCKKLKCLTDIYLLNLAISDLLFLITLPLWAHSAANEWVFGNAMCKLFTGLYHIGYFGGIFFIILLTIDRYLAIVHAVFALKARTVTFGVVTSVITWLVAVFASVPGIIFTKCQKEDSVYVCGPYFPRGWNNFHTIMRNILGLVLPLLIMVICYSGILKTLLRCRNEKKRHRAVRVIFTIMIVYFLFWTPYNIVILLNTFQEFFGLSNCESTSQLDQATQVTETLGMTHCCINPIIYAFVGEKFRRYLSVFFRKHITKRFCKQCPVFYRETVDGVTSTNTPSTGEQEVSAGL
Assay: Calcium mobilization assay (FLIPR, antagonist activity against MCP-1)
Settings: Ca mobilisation assay, CHOK1-CCR2B-A5 cells, inhibition of calcium increase induced by 20 nM MCP-1
Protocol: Calcium Mobilization Assay […] Test compounds were added to the assay plate and agonist activity was monitored as fluorescence for 80 seconds with a FLIPR (488 nm excitation; 510-570 nm emission; Molecular Devices). After 20-30 min. of incubation at 30° C., 20 nM MCP-1 (R&D; Roche) was added and fluorescence was monitored again for 80 seconds. Increases in intracellular calcium are reported as maximum fluorescence after agonist exposure minus basal fluorescence before exposure. […]
READOUT TYPE: log10(IC50) (log10 of the value in nM)
Please be aware that the numbers have been log10-transformed from IC50 in nM.

MOLECULE	READOUT TYPE	NUMERIC READOUT
C[C@H]1C(=O)N(CCCC(=O)N2CCC3(CC3)[C@H](O)C2)C(C(N)=O)CN1C(=O)Nc1ccc(Cl)c(Cl)c1 (stereo partly drawn)	log10(IC50)	1.04

Query block: Name the recorded log10(IC50) for C[C@H]1C(=O)N(CCCC(=O)N2CCC3(CC3)[C@H](O)C2)CCN1C(=O)Nc1ccc(C(F)(F)F)cc1 .
Result block: 1.31

Query block: Another: COC(=O)[C@H](CCC(=O)N1CCC2(CC2)[C@H](O)C1)N1CCN(C(=O)Nc2ccc(OC(F)(F)F)c(Cl)c2)[C@@H](C)C1=O
Result block: 2.33

Query block: What about CC1(CO)CCCCN1C(=O)CCN1CCN(C(=O)/C=C/c2ccc(Cl)c(Cl)c2)CCC1=O (racemic) ?
Result block: 2.99

Query block: Please give the result for C[C@H]1C(=O)N(CCCC(=O)N2CCC3(CC3)[C@H](O)C2)[C@@H](C(N)=O)CN1C(=O)Nc1ccc(C(F)(F)F)c(Cl)c1 too.
Result block: 1.48

Query block: Also, C[C@H]1C(=O)N(CCC(O)C(=O)N2CCC3(CC3)[C@H](O)C2)CCN1C(=O)Nc1ccc(C(F)(F)F)c(C(F)(F)F)c1 (stereo partly drawn) please.
Result block: 1.79
